# Tested on: MS2 coat protein
# assay-explanation: apparent KD of MS2 coat protein, switch OFF state (with FMN for OFF switches, without FMN for ON switches); designed switch direction (-1 OFF switch, 1 ON switch): 1; higher = weaker reporter binding
# condition-info: FMN input: 0 or 200 uM; Eterna round: R93 (includes R88 designs)
Assign class by apparent KD of MS2 coat protein: not lower than 40 nM means Satisfied; lower than 40 nM means Not satisfied.

Exercise: Is apparent KD of MS2 coat protein for UGGAGACAUGAGGAUCACCCAUGUGAGAAGAGGCGAGGAUAUCGAAAGAAAGAAGAGAAACGAGAAGGCGCGAGAA [salish99-SS1-033] at or above 40 nM?
Solution: Not satisfied

Exercise: Is apparent KD of MS2 coat protein for AGAAAUAAAAGAGAGGAUAUCCAAAAGAAAACAUGAGGAUCACCCAUGUACACGAAAGUGAAAUGGGAGAAGGCUCAAAAUAAAG [80% More Helter Skelter 2 + Hairpin] at or above 40 nM?
Solution: Satisfied

Exercise: Is apparent KD of MS2 coat protein for GGAAGACAUGAGGAUCACCCAUGUGGGAUUAUGGGAGGAUAUACAAAGACGAGAGUCAGAGUAGAAGGCCUAGGAC [salish99-ss1-123(!)] at or above 40 nM?
Solution: Satisfied

Exercise: Is apparent KD of MS2 coat protein for CUACAACAUGAGGAUCACCCAUGUCGUAGAAAUCAAGGAUAUGGGUCGGUAACAUGCGUACCAGAAGGUGAGGAAA [Rebicequ] at or above 40 nM?
Solution: Not satisfied

Exercise: Is apparent KD of MS2 coat protein for AGAAUAAAAAGAGAGGAUAUCCAUAAGAAAACAUGAGGAUCACCCAUGUGAAAGAUAAUAAGAUGGGAGAAGGCUCAAAAUAAGA [Topaz 46] at or above 40 nM?
Solution: Satisfied

###

# Test system: K4 kissing-loop RNA reporter;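 also: bound reporter read as fluorescence of individual clusters on recovered sequencing chips by microscopy, with normalized cluster intensities fitted with a binding model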
# assay-explanation: apparent KD of K4 kissing-loop reporter; higher = weaker reporter binding
# condition-info: Eterna round: R107; input ligand: arginine 13.2 mM
Entries get a class label from measured apparent KD of K4 kissing-loop reporter. See ranges: bin A (below 300 nM), bin B (300 nM to below 400 nM), bin C (400 nM or more)

Exercise: Band for the recorded apparent KD of K4 kissing-loop reporter of AUAUAGAGUGAUGUUCAUGAGUAUUUCGAAGGAGCGCUAAAUAAGGCAGGUAGGUCGCGGAAAAUAUAUAUAUAGAUAUAUAUAU [KL-SSArg-A29] ?
Solution: bin B

Exercise: Band for the recorded apparent KD of K4 kissing-loop reporter of CGUAGUUGGGCGGCCGCCACUUGAAAAGCUUUGCCAAAGGCAGAGCUCUAGAGUGAUGUUCUGGCAAGGACCGGGUCCAACUACA [#03 K4 Tryptophan B Same State] ?
Solution: bin C

Exercise: Band for the recorded apparent KD of K4 kissing-loop reporter of UUGUUUGGUUGAGAGGUUGGGCGAGAUGAUACCAGUAUAGUAUUGUACCCUUGGCAGCAUAGGAGAGAUAUAGUGAUGUUGUAUG [SSTheophA.W] ?
Solution: bin B

Exercise: Band for the recorded apparent KD of K4 kissing-loop reporter of CCGAGCCUGACGUAAGUCAGGCUCUGCGAGCGAGGACCGGUACGGCCGCCACUCGGUGCAGUGAUGUUGCAUGGCCGCAAGGCCG [#2 Exclusion - Tryptophan A Attempt #23 (HarryS)] ?
Solution: bin A

Exercise: Band for the recorded apparent KD of K4 kissing-loop reporter of CACCGGACGAAAGAUACCAGUUACUAUAUUAGGGUGCCUUGGCUAGUGAUGUUAGAGAGUAACCCUUGGCAGCUUUGGUACUUAU [theeternabot_exclusion_KL_Theo_B_21] ?
Solution: bin B

Exercise: Band for the recorded apparent KD of K4 kissing-loop reporter of UGUCAUGGAAACAUGAACGUUAAAAUAAAUCGAGGACCGGUACGGCCGCCACUCGUAUAGCGGUCAGUGAUGUUGACUGUAAUAA [KL-SSTryp-A form2 sub10] ?
Solution: bin A

Exercise: Band for the recorded apparent KD of K4 kissing-loop reporter of AGAAGAUAUCGUGAUACCAGACCGCGGAGAGGCCGGAAGAGGGUAGUGAUGUUGCAUGCAGUCCCUUGGCAGCACUGACAGUAUU [theeternabot_sameState_KL_Theo_B_40] ?
Solution: bin A

Exercise: Band for the recorded apparent KD of K4 kissing-loop reporter of GAAGUACAGGCGGCCGCCACUAGUGAUGUUAGUGAUAAAAGAUAUAGUAAAUAUCGGCAUGUAGAUAGGACCGGGCCUGAUGGAG [ggbgmullin] ?
Solution: bin A

Exercise: Band for the recorded apparent KD of K4 kissing-loop reporter of AGAACUGUCUUGGAUACCAGUGAUGUUGGUAUCGAUGUGUGAGUGCAAAGCGUCCCACAUUGCCCUUGGCAGCUAAGACUGUUCA [Omei KL Theo B Exc A v3] ?
Solution: bin A

Exercise: Band for the recorded apparent KD of K4 kissing-loop reporter of CUUGGUGGCUACAUCAGGAAUUGCGGCGGAAAGGAUAUUCAUUGGCGAAGAAGGUUCCAAGUGACGAGUGAUGUUCUUCGUAAGG [theeternabot_sameState_KL_FMN_A_13] ?
Solution: bin C
